Data credit: ChEMBL document CHEMBL1201861

Consider the following molecules; for each one, report its IC50.
- Tested on: NCI-H1304;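 note: growth inhibition of the cancer cell line, measured in a cell viability assay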
- Protocol Summary: cells
- Assay type: functional, cell-based, Homo sapiens
- Particulars: Homo sapiens, NCI-H1304
- Description: SANGER: Inhibition of human NCI-H1304 cell growth in a cell viability assay.

GET /values?readout=IC50&item= Cc1cc(N2CCOCC2)cc2[nH]c(-c3c(NC[C@@H](O)c4cccc(Cl)c4)cc[nH]c3=O)nc12
> 5.12 µM

Likewise for CCCCCCCCCCCC1=C(O)C(=O)C=C(O)C1=O [EMBELIN] ?
> 32 µM

Do the same for CS(=O)(=O)N1CCN(Cc2cc3nc(-c4cccc5[nH]ncc45)nc(N4CCOCC4)c3s2)CC1 [PICTILISIB] please
> 4 µM

// same read-out, input: CC(C)C[C@H](NC(=O)[C@H](Cc1ccccc1)NC(=O)c1cnccn1)B(O)O [BORTEZOMIB]
> 0.02 µM

Can you check NC(=O)Nc1cc(-c2cccc(F)c2)sc1C(=O)N[C@H]1CCCNC1 [AZD-7762] next?
> 2 µM

Query Cc1ccc(C(=O)Nc2ccc(CN3CCN(C)CC3)c(C(F)(F)F)c2)cc1C#Cc1cnc2cccnn12 [PONATINIB] next
> 0.512 µM

COC(=O)[C@H](CCSC)NC(=O)c1ccc(NC[C@@H](N)CS)cc1-c1ccccc1 , same question.
> 1.02 µM

Entry to check: O=C1NC(=O)c2c1c(-c1ccccc1Cl)cc1[nH]c3ccc(O)cc3c21
> 2 µM
